test: total protein half-life in vivo (active degradation + dilution); higher = more stable protein; settings: E. coli NCM3722 delta-lon; growth: N-lim chemostat; doubling time 6 h
Class 1 (yes): total protein half-life in vivo at least 4 h. Class 0 (no): total protein half-life in vivo below 4 h.

Some solved cases for reference:
sequenceCode	groupLabel
MSNTDASGEKRVTGTSERREQIIQRLRQQGSVQVNDLSALYGVSTVTIRNDLAFLEKQGIAVRAYGGALICDSTTPSVEPSVEDKSALNTAMKRSVAKAAVELIQPGHRVILDSGTTTFEIARLMRKHTDVIAMTNGMNVANALLEAEGVELLMTGGHLRRQSQSFYGDQAEQSLQNYHFDMLFLGVDAIDLERGVSTHNEDEARLNRRMCEVAERIIVVTDSSKFNRSSLHKIIDTQRIDMIIVDEGIPADSLEGLRKAGVEVILVGE [P0ACK2]	1 (yes)
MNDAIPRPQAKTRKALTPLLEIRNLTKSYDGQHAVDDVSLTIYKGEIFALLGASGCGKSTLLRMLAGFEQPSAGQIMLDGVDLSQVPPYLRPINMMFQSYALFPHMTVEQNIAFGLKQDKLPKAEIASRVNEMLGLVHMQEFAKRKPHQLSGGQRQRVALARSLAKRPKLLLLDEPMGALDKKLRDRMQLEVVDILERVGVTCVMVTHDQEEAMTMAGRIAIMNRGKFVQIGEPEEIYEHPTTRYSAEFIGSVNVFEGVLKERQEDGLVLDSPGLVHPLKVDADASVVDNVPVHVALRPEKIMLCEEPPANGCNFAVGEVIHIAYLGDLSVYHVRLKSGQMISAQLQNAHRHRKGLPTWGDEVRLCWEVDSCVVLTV	1 (yes)
MALLEICCYSMECALTAQQNGADRVELCAAPKEGGLTPSLGVLKSVRQRVTIPVHPIIRPRGGDFCYSDGEFAAILEDVRTVRELGFPGLVTGVLDVDGNVDMPRMEKIMAAAGPLAVTFHRAFDMCANPLYTLNNLAELGIARVLTSGQKSDALQGLSKIMELIAHRDAPIIMAGAGVRAENLHHFLDAGVLEVHSSAGAWQASPMRYRNQGLSMSSDEHADEYSRYIVDGAAVAEMKGIIERHQAK	1 (yes)
MSFFHASQRDALNQSLAEVQGQINVSFEFFPPRTSEMEQTLWNSIDRLSSLKPKFVSVTYGANSGERDRTHSIIKGIKDRTGLEAAPHLTCIDATPDELRTIARDYWNNGIRHIVALRGDLPPGSGKPEMYASDLVTLLKEVADFDISVAAYPEVHPEAKSAQADLLNLKRKVDAGANRAITQFFFDVESYLRFRDRCVSAGIDVEIIPGILPVSNFKQAKKFADMTNVRIPAWMAQMFDGLDDDAETRKLVGANIAMDMVKILSREGVKDFHFYTLNRAEMSYAICHTLGVRPGL [P0AEZ1]	0 (no)

**Query** Identify whether the reported total protein half-life in vivo of the following sequence is 4 h or greater: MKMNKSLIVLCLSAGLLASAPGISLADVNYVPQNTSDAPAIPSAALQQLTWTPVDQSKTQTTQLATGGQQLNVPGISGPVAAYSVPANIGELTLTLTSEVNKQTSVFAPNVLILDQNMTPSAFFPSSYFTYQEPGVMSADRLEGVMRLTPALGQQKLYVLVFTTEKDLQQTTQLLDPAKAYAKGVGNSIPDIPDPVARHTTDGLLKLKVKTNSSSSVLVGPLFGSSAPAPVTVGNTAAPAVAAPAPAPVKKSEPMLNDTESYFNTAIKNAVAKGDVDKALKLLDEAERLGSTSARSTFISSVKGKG
**Result** 0 (no)

---

assay: total protein half-life in vivo (active degradation + dilution); higher = more stable protein; conditions: wild type E. coli NCM3722; growth: C-lim chemostat; doubling time 12 h
readoutName: total protein half-life in vivo (h)
Answers are plain numbers, in h.

Consider the worked cases shown below.
sequenceCode	total protein half-life in vivo [h]
MLKTIRKHGITLALFAAGSTGLTAAINQMTKTTIAEQASLQQKALFDQVLPAERYNNALAQSCYLVTAPELGKGEHRVYIAKQDDKPVAAVLEATAPDGYSGAIQLLVGADFNGTVLGTRVTEHHETPGLGDKIELRLSDWITHFAGKKISGADDAHWAVKKDGGDFDQFTGATITPRAVVNAVKRAGLYAQTLPAQLSQLPACGE	10.6
MPLLDIRNLTIEFKTGDEWVKAVDRVSMTLTEGEIRGLVGESGSGKSLIAKAICGVNKDNWRVTADRMRFDDIDLLRLSARERRKLVGHNVSMIFQEPQSCLDPSERVGRQLMQNIPAWTYKGRWWQRFGWRKRRAIELLHRVGIKDHKDAMRSFPYELTEGECQKVMIAIALANQPRLLIADEPTNSMEPTTQAQIFRLLTRLNQNSNTTILLISHDLQMLSQWADKINVLYCGQTVETAPSKELVTMPHHPYTQALIRAIPDFGSAMPHKSRLNTLPGAIPLLEQLPIGCRLGPRCPYAQRECIVTPRLTGAKNHLYACHFPLNMEKE [P0AAH4]	11.2

Proceeding to the next sequence to report its total protein half-life in vivo.
**Query** Output measured total protein half-life in vivo for this item: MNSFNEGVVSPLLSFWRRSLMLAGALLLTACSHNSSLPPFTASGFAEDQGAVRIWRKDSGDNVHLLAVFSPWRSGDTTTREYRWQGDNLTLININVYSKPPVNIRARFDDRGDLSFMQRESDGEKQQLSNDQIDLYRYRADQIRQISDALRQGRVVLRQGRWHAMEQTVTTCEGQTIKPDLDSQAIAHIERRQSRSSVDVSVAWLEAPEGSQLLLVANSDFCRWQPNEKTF
**Result** 11.2

---

assay: total protein half-life in vivo (active degradation + dilution); higher = more stable protein; details: wild type E. coli NCM3722; growth: C-lim chemostat; doubling time 3 h
Kindly state total protein half-life in vivo for each of the entries shown.

Consider the worked cases shown below.
sequenceCode	total protein half-life in vivo
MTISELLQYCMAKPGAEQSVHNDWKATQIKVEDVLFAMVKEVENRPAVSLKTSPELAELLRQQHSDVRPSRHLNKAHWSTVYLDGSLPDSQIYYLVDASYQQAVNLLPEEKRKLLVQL [P0AF50]	> 4 h
MAAKDRIQAIKQMVANDKKVTVSNLSGIFQVTEETIRRDLEKLEDEGFLTRTYGGAVLNTAMLTENIHFYKRASSFYEEKQLIARKALPFIDNKTTMAADSSSTVMELLKLLQDRSGLTLLTNSAEAIHVLAQSEIKVVSTGGELNKNTLSLQGRITKEIIRRYHVDIMVMSCKGLDINSGALDSNEAEAEIKKTMIRQATEVALLVDHSKFDRKAFVQLADFSHINYIITDKSPGAEWIAFCKDNNIQLVW	2.93 h
MTLDLPRRFPWPTLLSVCIHGAVVAGLLYTSVHQVIELPAPAQPISVTMVTPADLEPPQAVQPPPEPVVEPEPEPEPIPEPPKEAPVVIEKPKPKPKPKPKPVKKVQEQPKRDVKPVESRPASPFENTAPARLTSSTATAATSKPVTSVASGPRALSRNQPQYPARAQALRIEGQVKVKFDVTPDGRVDNVQILSAKPANMFEREVKNAMRRWRYEPGKPGSGIVVNILFKINGTTEIQ	1.93 h

Proceeding to the next sequence to report its total protein half-life in vivo.
**Query** Output measured total protein half-life in vivo for this item: MQSVDVAIVGGGMVGLAVACGLQGSGLRVAVLEQRVQEPLAANAPPQLRVSAINAASEKLLTRLGVWQDILSRRASCYHGMEVWDKDSFGHISFDDQSMGYSHLGHIVENSVIHYALWNKAHQSSDITLLAPAELQQVAWGENETFLTLKDGSMLTARLVIGADGANSWLRNKADIPLTFWDYQHHALVATIRTEEPHDAVARQVFHGEGILAFLPLSDPHLCSIVWSLSPEEAQRMQQASEDEFNRALNIAFDNRLGLCKVESARQVFPLTGRYARQFASHRLALVGDAAHTIHPLAGQGVNLGFMDAAELIAELKRLHRQGKDIGQYIYLRRYERSRKHSAALMLAGMQGFRDLFSGTNPAKKLLRDIGLKLADTLPGVKPQLIRQAMGLNDLPEWLR
**Result** 2.86 h

---

Kindly state total protein half-life in vivo for each of the entries shown.
experiment: total protein half-life in vivo (active degradation + dilution); higher = more stable protein; conditions: E. coli NCM3722 delta-clpP delta-lon delta-hslV; growth: N-lim chemostat; doubling time 6 h
Numbers only, in h.

Consider the worked cases shown below.
sequenceCode	total protein half-life in vivo, h
MAEAQNDPLLPGYSFNAHLVAGLTPIEANGYLDFFIDRPLGMKGYILNLTIRGQGVVKNQGREFVCRPGDILLFPPGEIHHYGRHPEAREWYHQWVYFRPRAYWHEWLNWPSIFANTGFFRPDEAHQPHFSDLFGQIINAGQGEGRYSELLAINLLEQLLLRRMEAINESLHPPMDNRVREACQYISDHLADSNFDIASVAQHVCLSPSRLSHLFRQQLGISVLSWREDQRISQAKLLLSTTRMPIATVGRNVGFDDQLYFSRVFKKCTGASPSEFRAGCEEKVNDVAVKLS [P0A9E0]	5.38
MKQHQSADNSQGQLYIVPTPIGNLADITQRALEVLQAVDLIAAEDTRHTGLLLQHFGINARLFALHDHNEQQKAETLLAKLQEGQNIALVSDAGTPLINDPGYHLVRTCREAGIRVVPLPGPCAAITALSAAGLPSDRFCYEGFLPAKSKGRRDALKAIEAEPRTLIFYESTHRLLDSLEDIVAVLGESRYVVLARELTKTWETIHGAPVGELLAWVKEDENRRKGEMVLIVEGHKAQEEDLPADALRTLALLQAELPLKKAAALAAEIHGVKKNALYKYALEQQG	6.24

Proceeding to the next sequence to report its total protein half-life in vivo.
**Query** Output measured total protein half-life in vivo for this item: MLNKLSLLLKDAGISLTDHQKNQLIAYVNMLHKWNKAYNLTSVRDPNEMLVRHILDSIVVAPYLQGERFIDVGTGPGLPGIPLSIVRPEAHFTLLDSLGKRVRFLRQVQHELKLENIEPVQSRVEEFPSEPPFDGVISRAFASLNDMVSWCHHLPGEQGRFYALKGQMPEDEIALLPEEYQVESVVKLQVPALDGERHLVVIKANKI [P0A6U5]
**Result** 5.85
